- Measurement Notes: Plasma kinetics in rat following intravenous and oral administration
- Format: in vivo, Sprague Dawley rats
- Details: male, Sprague Dawley, rat, plasma, po, 10 mg/kg, oral 10 mg/kg, male rats, Arithmetic Mean
Observed Property: AUC(0-inf) (ng·h/mL)
All answers are understood in ng·h/mL, so give the number only.

Lookup result for N=C(N)NN=CC=Cc1cccn1-c1ccccc1Br [Compound 3, acetate] ; measured AUC(0-inf): 838

====

Assignment: determine reported Vd for the given compounds.
- Measurement Notes: Plasma kinetics in rat following intravenous and oral administration
- Type: in vivo, Sprague Dawley rats
- Details: male, Sprague Dawley, rat, plasma, iv, 10 mg/kg, intravenous 10 mg/kg, male rats, Geometric mean; read-out: Vss (mean apparent volume of distribution)
Please state the figure in L/kg; there is no need to write the unit.

According to the records, this compound N=C(N)NN=CC=Cc1cccn1-c1ccccc1[N+](=O)[O-] [Compound 2, acetate] displays Vd of 18.5

Vd reported for this compound N=C(N)NN=CC=Cc1cccn1-c1ccccc1Br [Compound 3, acetate] : 13.4

Lab book: Vd of N=C(N)NN=CC=Cc1cccn1-c1ccc(Cl)cc1 [Compound 1, acetate] noted as 17.5

====

- Measurement Notes: Plasma kinetics in rat following intravenous and oral administration
- Assay type: in vivo, Sprague Dawley rats
- Details: male, Sprague Dawley, rat, plasma, po, 10 mg/kg, oral 10 mg/kg, male rats, individual animals; read-out: MRT
Observed Property: MRT (h)
Provide only the numeric value, understood in h.

N=C(N)NN=CC=Cc1cccn1-c1ccc(Cl)cc1 [Compound 1, acetate] yielded MRT of 7.86

Documented MRT of N=C(N)NN=CC=Cc1cccn1-c1ccccc1[N+](=O)[O-] [Compound 2, acetate] : 3.06

N=C(N)NN=CC=Cc1cccn1-c1ccccc1Br [Compound 3, acetate] yielded MRT of 6.82

====

- Measurement Notes: Plasma kinetics in rat following intravenous and oral administration
- Format: in vivo, Sprague Dawley rats
- Details: male, Sprague Dawley, rat, plasma, po, 10 mg/kg, single oral 10 mg/kg, male rats, 4 h, individual animals; read-out: Sample Concentration in plasma
- Method: This study determined the intravenous pharmacokinetics and oral bioavailability of compound 1 of the invention (see FIG. 1A, structure no. 1), compound 2 of the invention (see FIG. 1D, structure no. 19) and compound 3 of the invention (see FIG. 1I, structure no. 53) following administration to Sprague Dawley rats at a dose level of 10 mg/kg. […]
Exercise: state measured concentration at 4 h for each of the compounds provided.
Write the value in ng/mL as a bare number.

Data point: N=C(N)NN=CC=Cc1cccn1-c1ccccc1Br [Compound 3, acetate] ; concentration at 4 h = 112

The compound listed as N=C(N)NN=CC=Cc1cccn1-c1ccc(Cl)cc1 [Compound 1, acetate] shows concentration at 4 h equal to 102

====

- Measurement Notes: Plasma kinetics in rat following intravenous and oral administration
- Assay type: in vivo, Sprague Dawley rats
- Details: male, Sprague Dawley, rat, plasma, po, 10 mg/kg, oral 10 mg/kg, male rats, Arithmetic Mean; read-out: tmax
Observed Property: Tmax (h)
Report the figure in h without appending any unit label.

Measured Tmax, N=C(N)NN=CC=Cc1cccn1-c1ccccc1[N+](=O)[O-] [Compound 2, acetate] : 1.75

The recorded Tmax for N=C(N)NN=CC=Cc1cccn1-c1ccccc1Br [Compound 3, acetate] is 4.67

The compound listed as N=C(N)NN=CC=Cc1cccn1-c1ccc(Cl)cc1 [Compound 1, acetate] has a reported Tmax of 6.65

====

- Measurement Notes: Plasma kinetics in rat following intravenous and oral administration
- Format: in vivo, Sprague Dawley rats
- Details: male, Sprague Dawley, rat, plasma, po, 10 mg/kg, single oral 10 mg/kg, male rats, 8 h, individual animals; LLOQ 2.50; read-out: Sample Concentration in plasma
Observed Property: concentration at 8 h (ng/mL)
Form entry: value (ng/mL) — number only.

Per the records, this compound ( N=C(N)NN=CC=Cc1cccn1-c1ccccc1Br [Compound 3, acetate] ) has concentration at 8 h equal to 50.1

Reported concentration at 8 h for N=C(N)NN=CC=Cc1cccn1-c1ccc(Cl)cc1 [Compound 1, acetate] was 68.8

====

- Measurement Notes: Plasma kinetics in rat following intravenous and oral administration
- Format: in vivo, Sprague Dawley rats
- Details: male, Sprague Dawley, rat, plasma, iv, 10 mg/kg, single intravenous 10 mg/kg, male rats, 24 h, individual animals; LLOQ 2.50; read-out: Sample Concentration in plasma
Assignment: determine reported concentration at 24 h for the given compounds.
Respond numerically; units are ng/mL and should not be typed.

Entry N=C(N)NN=CC=Cc1cccn1-c1ccccc1[N+](=O)[O-] [Compound 2, acetate] — recorded concentration at 24 h = 3.95

Per the records, this compound ( N=C(N)NN=CC=Cc1cccn1-c1ccccc1Br [Compound 3, acetate] ) has concentration at 24 h equal to 3.08

====

- Measurement Notes: Plasma kinetics in rat following intravenous and oral administration
- Type: in vivo, Sprague Dawley rats
- Details: Table XIV; intravenous 10 mg/kg, male rats, Arithmetic Mean
- Protocol: This study determined the intravenous pharmacokinetics and oral bioavailability of compound 1 of the invention (see FIG. 1A, structure no. 1), compound 2 of the invention (see FIG. 1D, structure no. 19) and compound 3 of the invention (see FIG. 1I, structure no. 53) following administration to Sprague Dawley rats at a dose level of 10 mg/kg. […]
Observed Property: t1/2 (h)
Lab book: enter the figure in h, no units written.

N=C(N)NN=CC=Cc1cccn1-c1ccccc1Br [Compound 3, acetate] yielded t1/2 of 3.15

====

- Measurement Notes: Plasma kinetics in rat following intravenous and oral administration
- Type: in vivo, Sprague Dawley rats
- Details: male, Sprague Dawley, rat, plasma, iv, 10 mg/kg, intravenous 10 mg/kg, male rats, individual animals; read-out: CL (converted)
Please respond with reported clearance for every item in the list.
Expressed in mL/min/kg, but write only the number.

Form field clearance, entry N=C(N)NN=CC=Cc1cccn1-c1ccccc1Br [Compound 3, acetate] : 55.4

Documented clearance of N=C(N)NN=CC=Cc1cccn1-c1ccc(Cl)cc1 [Compound 1, acetate] : 40.9

Data point: N=C(N)NN=CC=Cc1cccn1-c1ccccc1[N+](=O)[O-] [Compound 2, acetate] ; clearance = 97.1

====

- Measurement Notes: Plasma kinetics in rat following intravenous and oral administration
- Type: in vivo, Sprague Dawley rats
- Details: male, Sprague Dawley, rat, plasma, po, 10 mg/kg, single oral 10 mg/kg, male rats, 8 h, mean; LLOQ 2.50; read-out: Mean Concentration in plasma
I'd appreciate it if you could supply concentration at 8 h values for the items below.
Answer in ng/mL, number only, no unit symbol.

The compound identified as N=C(N)NN=CC=Cc1cccn1-c1ccccc1Br [Compound 3, acetate] registered its concentration at 8 h at 60.8

Summary for this compound, N=C(N)NN=CC=Cc1cccn1-c1ccc(Cl)cc1 [Compound 1, acetate] : concentration at 8 h is 92.9

====

Field: pKi. Provide a value for each of the compounds that follow.
- Study System: UniProt:P33032
- Sequence (P33032 whole entry): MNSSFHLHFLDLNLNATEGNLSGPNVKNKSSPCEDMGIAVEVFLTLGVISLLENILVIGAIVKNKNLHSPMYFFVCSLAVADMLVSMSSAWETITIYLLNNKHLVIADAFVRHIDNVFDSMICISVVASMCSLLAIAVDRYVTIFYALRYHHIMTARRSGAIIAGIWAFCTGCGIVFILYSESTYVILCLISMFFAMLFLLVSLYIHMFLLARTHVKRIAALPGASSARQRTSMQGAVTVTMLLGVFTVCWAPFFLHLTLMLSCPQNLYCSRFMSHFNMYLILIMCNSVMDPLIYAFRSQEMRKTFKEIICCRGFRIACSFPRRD
- Measurement Notes: [125I]-NDP-MSH radio-ligand binding, MC5 (h) receptor (recombinant CHO cells)
- Details: 60 min/37° C.
pKi: −log10 of the molar value.

Response field pKi (UniProt:P33032) for item N=C(N)NN=CC=Cc1cccn1-c1ccc(Cl)cc1 [Compound 1, acetate] : < 6.00

# value of pKi, UniProt:P33032, item N=C(N)NN=CC=Cc1cccn1-c1ccccc1Br [Compound 3, acetate] = < 6.00

// compound N=C(N)NN=Cc1cccn1-c1ccccc1[N+](=O)[O-] [Reference-compound 2, acetate, reference compound] , assay UniProt:P33032, pKi value: < 6.00

pKi on UniProt:P33032 for N=C(N)NN=CC=Cc1cccn1-c1ccccc1[N+](=O)[O-] [Compound 2, acetate] is < 6.00

Readout pKi for N=C(N)NN=Cc1cccn1-c1ccc(Cl)cc1 [Reference-compound 1, acetate, reference compound] , test system UniProt:P33032, was < 6.00

====

- Measurement Notes: Plasma kinetics in rat following intravenous and oral administration
- Assay type: in vivo, Sprague Dawley rats
- Details: male, Sprague Dawley, rat, plasma, po, 10 mg/kg, single oral 10 mg/kg, male rats, 0.05 h, individual animals; LLOQ 2.50; read-out: Sample Concentration in plasma
Observed Property: concentration at 0.05 h (ng/mL)
Report the value in ng/mL with no unit label.

Reported concentration at 0.05 h for N=C(N)NN=CC=Cc1cccn1-c1ccccc1[N+](=O)[O-] [Compound 2, acetate] was 4.68

====

- Measurement Notes: Plasma kinetics in rat following intravenous and oral administration
- Type: in vivo, Sprague Dawley rats
- Details: male, Sprague Dawley, rat, plasma, po, 10 mg/kg, oral 10 mg/kg, male rats, individual animals; read-out: Cmax
Field: Cmax. Provide a value for each of the compounds that follow.
Reply numerically in µg/mL, unit not repeated.

Please fill in: Cmax reported for N=C(N)NN=CC=Cc1cccn1-c1ccccc1Br [Compound 3, acetate] = 0.132

The compound listed as N=C(N)NN=CC=Cc1cccn1-c1ccc(Cl)cc1 [Compound 1, acetate] shows Cmax equal to 0.106
